Where these numbers come from: patent US20260356826A1

experiment: Dissolution in Fasted State Simulated Gastric Fluid (FaSSGF), manual experiment, 37 °C; assay type: physicochemical; conditions: 37 °C, first experiment, 40 min
VALUE_KIND: Solubility (µg/mL)
Hi! Could you send only the number? It should be in µg/mL, unit omitted.

# input Report Solubility, nothing else, for this compound: COc1cc(-c2ccc(F)cn2)cc2c(N[C@H](C)c3noc(C)n3)ncnc12 [saccharinate]
# output 1080

# input Report Solubility, nothing else, for this compound: COc1cc(-c2ccc(F)cn2)cc2c(N[C@H](C)c3noc(C)n3)ncnc12 [free base Form A]
# output 6890

# input Report Solubility, nothing else, for this compound: COc1cc(-c2ccc(F)cn2)cc2c(N[C@H](C)c3noc(C)n3)ncnc12 [fumarate]
# output 3610

# input Report Solubility, nothing else, for this compound: COc1cc(-c2ccc(F)cn2)cc2c(N[C@H](C)c3noc(C)n3)ncnc12 [oxalate]
# output 90

====

assay: Dissolution in Fasted State Simulated Gastric Fluid (FaSSGF), manual experiment, 37 °C; assay type: physicochemical; conditions: 37 °C, second experiment (saturation conc. 170 mg/ml mesylate, 100 mg/ml esylate), 0 min
Record form. Attribute: Solubility. Fill in for each entry.
Hi! Could you send only the number? It should be in µg/mL, unit omitted.

# input Report Solubility, nothing else, for this molecule: COc1cc(-c2ccc(F)cn2)cc2c(N[C@H](C)c3noc(C)n3)ncnc12 [ethanedisulfonate]
# output 490

# input Report Solubility, nothing else, for this molecule: COc1cc(-c2ccc(F)cn2)cc2c(N[C@H](C)c3noc(C)n3)ncnc12 [chloride]
# output 690

# input Report Solubility, nothing else, for this molecule: COc1cc(-c2ccc(F)cn2)cc2c(N[C@H](C)c3noc(C)n3)ncnc12 [tosylate]
# output 610

# input Report Solubility, nothing else, for this molecule: COc1cc(-c2ccc(F)cn2)cc2c(N[C@H](C)c3noc(C)n3)ncnc12 [phosphate]
# output 210

# input Report Solubility, nothing else, for this molecule: COc1cc(-c2ccc(F)cn2)cc2c(N[C@H](C)c3noc(C)n3)ncnc12 [besylate]
# output 1010

# input Report Solubility, nothing else, for this molecule: COc1cc(-c2ccc(F)cn2)cc2c(N[C@H](C)c3noc(C)n3)ncnc12 [free base Form A]
# output 630

# input Report Solubility, nothing else, for this molecule: COc1cc(-c2ccc(F)cn2)cc2c(N[C@H](C)c3noc(C)n3)ncnc12 [oxalate]
# output 1730

# input Report Solubility, nothing else, for this molecule: COc1cc(-c2ccc(F)cn2)cc2c(N[C@H](C)c3noc(C)n3)ncnc12 [camphorsulfonate]
# output 510

====

Record form. Attribute: Solubility. Fill in for each entry.
Test: Dissolution in Fasted State Simulated Gastric Fluid (FaSSGF), manual experiment, 37 °C
Type: physicochemical
Conditions: 37 °C, first experiment (saturation conc. around 25-30 mg/ml), 5 min
Description: The dissolution in Fasted State Simulated Gastric Fluid (FaSSGF) of mesylate salt Form 2 of the compound A of Example 2 and esylate salt Form 1 of Example 6 in comparison with the free base Form A and with other salts was tested by means of manual experiment. […] The quantification of the dissolved amount was done by LC/UV system at different checkpoints up to 60 minutes. […]
Hi! Could you send only the number? It should be in µg/mL, unit omitted.

# input Report Solubility, nothing else, for this compound: COc1cc(-c2ccc(F)cn2)cc2c(N[C@H](C)c3noc(C)n3)ncnc12 [fumarate]
# output 3290

# input Report Solubility, nothing else, for this compound: COc1cc(-c2ccc(F)cn2)cc2c(N[C@H](C)c3noc(C)n3)ncnc12 [saccharinate]
# output 900

# input Report Solubility, nothing else, for this compound: COc1cc(-c2ccc(F)cn2)cc2c(N[C@H](C)c3noc(C)n3)ncnc12 [free base Form A]
# output 6870

# input Report Solubility, nothing else, for this compound: COc1cc(-c2ccc(F)cn2)cc2c(N[C@H](C)c3noc(C)n3)ncnc12 [oxalate]
# output 90
